# protocol: binders of probe aFGF2 on microarray, primary screen, stem cell growth factor project, biochemical, small-molecule microarray, fluorescence 635/667 (AID 1067);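 further: measures binding of biotinylated aFGF2 protein to printed compounds on slides; z-score merges feature fluorescence and signal-to-noise across triplicate slides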
# conditions-used: higher = more signal
readout-name: composite z-score

-- ask Complete the entry with composite z-score for COC(=O)[C@@H]1CC[C@H](C)[C@@H](c2ccc(C)cc2)N1C(=O)c1ccc(C=NO[C@@H]2O[C@H](COC(C)=O)[C@@H](OC(C)=O)[C@H](OC(C)=O)[C@H]2OC(C)=O)cc1
-- reply -0.0985

-- ask Determine its reported composite z-score: C[C@H]1COC(=O)[C@@H]2CCCN2C(=O)[C@@H](C)COC(=O)[C@H](Cc2ccccc2)NC1=O
-- reply -0.183

-- ask Recall and state the measured composite z-score for CCOC(=O)[C@H](CC(C)C)NC(=O)CCC1CC(OC(=O)NCCc2ccc(F)cc2)CC2(CCCC(COC(=O)NCCc3ccccc3OC)O2)O1 (some centres undefined) .
-- reply -0.0806

-- ask Give me measured composite z-score, please, for this compound: COC(=O)C1=C(C)N(Cc2ccccc2)[C@]23O[C@](C(=O)OC)(C(=O)N2[C@@H]1c1ccccc1)C(C(=O)OC)=C3C(=O)OC
-- reply -0.0232

-- ask Query composite z-score for COc1cccc([C@H]2Oc3ccc(OC)cc3C(=NO[C@@H](C)c3cn([C@H](CO)Cc4ccccc4)nn3)[C@@H]2O)c1
-- reply -0.133

-- ask Return value of composite z-score for input COC(=O)[C@@H]1CC[C@H](C)[C@@H](c2ccc(C)cc2)N1C(=O)c1ccc(C=NOCC[C@@H]2C=C[C@H](OC(C)=O)[C@@H](COC(C)=O)O2)cc1 , no commentary.
-- reply -0.11

-- ask Name the recorded composite z-score of the compound listed here: COC(=O)[C@H](C)NC(=O)CCC1CC(OC(=O)NCc2cccc3ccccc23)CC2(CCCC(COC(=O)NCC(c3ccccc3)c3ccccc3)O2)O1 (some centres undefined)
-- reply -0.0092

-- ask Retrieve composite z-score measured for O=c1n(Cc2cc3c(cc2Cl)OCO3)c(=O)n2n1CC[C@@H]1C(=NOCc3ccccc3)[C@H]3O[C@H]3[C@@H](O)[C@@H]12 and print it.
-- reply -0.14

-- ask Please list composite z-score recorded for the compound C[C@@H](c1ccccc1)N1C(=O)[C@H]2[C@H]3[C@H](O)[C@H](O)CC(=NOCc4ccccc4)[C@H]3CC[C@H]2C1=O
-- reply -0.0667

-- ask Read the entry COC(=O)[C@H](C)NC(=O)CCC1CC(OC(=O)NCc2ccc3c(c2)OCO3)CC2(CCCC(COC(=O)NCC(c3ccccc3)c3ccccc3)O2)O1 (some centres undefined) and write its reported composite z-score.
-- reply -0.0541

-- ask Respond only with composite z-score recorded for C=C(C)C(=O)OCC1CN2[C@@H](CC[C@@H](C)[C@@H]2c2ccc(Br)cc2)C(=O)O1 (some centres undefined)
-- reply -0.15

-- ask Given CC(CCN1CCCCc2nc(C)c(C)cc21)=NOC[C@@H](O)COCc1ccco1 , respond with its composite z-score.
-- reply -0.242

-- ask Using the record for CO[C@H]1COC(=O)[C@@H](C)COC(=O)[C@H](COCc2ccccc2)NC(=O)CC=C[C@H]1C , state its measured composite z-score.
-- reply -0.156

-- ask State its composite z-score: CCN1C(=O)[C@@H]2[C@H]3C(=CC[C@@H]2C1=O)C1(OCCCO1)[C@H]1O[C@H]1[C@H]3O
-- reply -0.076
